Test system: HGF, HPLF, and HPC non-malignant cells
Protocol: Average over HGF, HPLF and HPC non-malignant oral cells
Assay type: cell-based, human
Condition info: average of HGF
Metric name: CC50

[NH2][Pt]([NH2])([Cl])[Cl] [CDDP, cisplatin, reference compound]
> 1000 µM

* * *

Overview of recorded IC50 for various compounds
System: HCT116 colon cancer cells
Protocol: Cytotoxicity against HCT116 colon cancer cells
Type: cell-based, human
Condition info: Homo sapiens, HCT-116, 48 h, 48 h
Metric name: IC50 (µM)

Cc1ccc(/C=C2\CNC/C(=C\c3ccc(O)c(CN4CCN(C)CC4)c3)C2=O)cc1
3.91
O=c1[nH]cc(F)c(=O)[nH]1 [Compound 5-FU, 5-fluorouracil, reference compound]
3.54

These measurements were taken from paper PMC9572513.
